Reference source: patent US9192644B2

Experiment: in vivo
Settings: mouse
quantity.kind: concentration at 4 hr

concentration at 4 hr for COc1cc(/C=C/C(=O)CC(=O)/C=C/c2ccc(O)c(OC)c2)ccc1O is 250 to 500 nM

----------
Test: in vivo
Settings: mouse, ip, 147 μg
quantity.kind: concentration at 4 hr (µg/mL)
Value expressed in µg/mL; do not type the unit.

concentration at 4 hr for COc1cc(CCC(=O)CC(=O)CCc2ccc(O)c(OC)c2)ccc1O [TC, tetrahydrocurcumin] is 0.847
